- system: PAR-4 (PAWR) - atypical PKC interaction
- protocol summary: inhibitors of PAWR-atypical PKC interaction (AID 1581)
- test settings: PAR4-aPKC protein interaction assay, normalized signal
Results filed as inconclusive are left out.
assay metric: EC50

Challenge: What value of EC50 has been reported for the following compound? `N[C@@H](Cc1ccc(O)c(O)c1)C(=O)O`
Response given: 13 µM

Challenge: Same thing, different compound: CO[C@@]1(NC(=O)C(C(=O)O)c2ccc(O)cc2)C(=O)N2C(C(=O)O)=C(CSc3nnnn3C)CO[C@@H]21 (some centres not stated)
Response given: 11 µM

Challenge: Same thing, different compound: `O=c1c(O)cc2c(O)oc3c(=O)c(O)cc4c3c2c1CC=4O`
Response given: 21 µM

Challenge: Same thing, different compound: `C=Cc1c(C)c2cc3[nH]c(cc4nc(cc5nc(cc1[nH]2)C(C)=C5CCC(=O)O)C(CCC(=O)O)=C4C)c(C)c3C=C`
Response given: 14 µM

Challenge: Same thing, different compound: `O=C1C=CC(=O)c2c(O)cccc21`
Response given: 18 µM

Challenge: Same thing, different compound: `NC[C@H](O)c1ccc(O)c(O)c1`
Response given: 29 µM

Challenge: Same thing, different compound: `O=c1c(O)c(-c2ccc(O)cc2O)oc2cc(O)cc(O)c12`
Response given: 10 µM
